# tested system: T1, recombinant human IL-23R/Fc chimera (R&D Systems) (human, UniProt Q5VWK5 24-355)
# T1 construct: Bought; also called rhIL23RFc
# T1 sequence (looked up): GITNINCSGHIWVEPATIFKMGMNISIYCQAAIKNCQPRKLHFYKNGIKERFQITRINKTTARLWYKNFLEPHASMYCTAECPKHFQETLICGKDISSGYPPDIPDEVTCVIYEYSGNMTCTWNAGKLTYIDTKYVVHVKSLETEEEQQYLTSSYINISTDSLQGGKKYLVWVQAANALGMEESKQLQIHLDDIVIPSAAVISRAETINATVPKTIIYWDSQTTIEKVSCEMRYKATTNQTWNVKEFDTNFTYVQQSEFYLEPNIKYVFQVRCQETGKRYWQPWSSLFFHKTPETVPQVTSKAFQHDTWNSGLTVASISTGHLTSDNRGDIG
# assay: SPR
measured endpoint: kon (M⁻¹ s⁻¹)
Report the figure in M⁻¹ s⁻¹ without appending any unit label.

Here is how some binders turned out for kon.
101-54-4B10 ATRIMER complex (designed binder) EPPTQKPKKIVNAKKDVVNTKMFEELKSRLDTLAQEVALLKEQQALQTVCLKGTKVHMKCFLAFTQTKTFHEASEDCISRGGTLSTPQTGSENDALYEYLRQSVGNEAEIWLGLNGSALTNTWVDMTGARIAYKNWERPPLYQPGGGFGYFGENCAVLSGAANGKWFDKRCRDQLPYICQFGIV = 479000
056-53.H7B ATRIMER complex (designed binder, non-covalent homotrimer of the one chain given, not shown: Also the single Ser the vector leaves after the ompA signal) EPPTQKPKKIVNAKKDVVNTKMFEELKSRLDTLAQEVALLKEQQALQTVCLKGTKVHMKCFLAFTQTKTFHEASEDCISRGGTLSTPQTGSENDALYEYLRQSVGNEAEIWLGLNAGRMGLVWVDMTGARIAYKNWETEITAQPDGGWGVFGENCAVLSGAANGKWFDKRCRDQLPYICQFGIV = 431000

API: the following record is the query input.
Query block: What does the record list as kon for 001-89.C3C ATRIMER complex (designed binder, not shown: C-terminal tag: His/Myc (pANA4) or HA-StrepII (pANA10)) EPPTQKPKKIVNAKKDVVNTKMFEELKSRLDTLAQEVALLKEQQALQTVCLKGTKVHMKCFLAFTQTKTFHEASEDCISRGGTLSTPQTGSENDALYEYLRQSVGNEAEIWLGLNANRRRTMWVDMTGARIAYKNWETEITAQPDGGMGVWGENCAVLSGAANGKWFDKRCRDQLPYICQFGIV ?
Result block: 57900
